- assay: protein stability index of a GFP-peptide fusion (GPS, HEK-293T) (PSI 1-6); higher = more stable;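 further: 24-mer peptide tiles fused after GFP, lentivirally expressed, FACS-sorted into six equal bins by GFP/DsRed ratio, decoded by Illumina sequencing, PSI is the read-weighted mean bin number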
- assay context: treatment: DMSO; c terminus: a fixed tail appended
For each record, write down the corresponding protein stability index.
Respond numerically, and do not add a unit to the figure.

The sequence listed as YVYKPVMNQTCCPQYTIRCRPLQF [ATE1] shows protein stability index equal to 2.65

In plain terms, VLQENYTHLPKADIFALALTVVCA [WEE1] has a documented protein stability index of 2.69

The value of protein stability index measured for the sequence GEVVKIPSRVHGSLEPFRPQQAPQ [PWWP2B] turned out to be 4.22

What the record says about GLGASTAEISARTMQSMFAKNFHV [PTPRD] : protein stability index is 2.38

So for HVHDPHGQVIWGMSWAKLARQATN [FBXO39] , the logged protein stability index turned out to be 2.58

Recorded protein stability index (sequence VNSVCWASLNHLDSHILLCLMGLA [DCAF4] ): 2.51

Input PLESIDHSVTGFLCEPDPVHFSEA [ALG2] . Output protein stability index: 4.48

* * *

- assay: protein stability index of a GFP-peptide fusion (GPS, HEK-293T) (PSI 1-6); higher = more stable
- assay context: treatment: MLN4924 1 uM, 8 h; c terminus: a fixed tail appended
Each entry gets class 0 if its protein stability index stays under 4, and class 1 if its protein stability index is 4 or above.

Input line: Is it the case that ICLMCVHSLERAGSKQYSAAIAFT [SMG5] has protein stability index reaching or exceeding 4?
Output line: class 0

Input line: Exam item: decide whether the reported protein stability index for REIEELLAEAKYYLVQGLVEECQA [KCTD10] is at least 4.
Output line: class 0

Input line: Quick check: does NESLASLPLRVSFCPLSLWRWQLY [CLPTM1] have protein stability index greater than or equal to 4?
Output line: class 0

Input line: Check if protein stability index >= 4 (inclusive). Item: DQLAFIEELFSLMVVNRLTEELGC [EID1]
Output line: class 0

Input line: Could you verify whether the entry LKATFSGFTKEQQRLGIPKDPRQW [ETS1] shows protein stability index of no less than 4?
Output line: class 0

Input line: I'd appreciate it if you could say whether EGTSSIVMEIQKQIEKKEKKLHKI [TAF7L] has protein stability index at least equal to 4.
Output line: class 1

Input line: Does protein stability index meet or surpass 4 for EPQWFYEETESSDDVEVLTLKKFK [C8orf76] ?
Output line: class 1

Input line: Check this sequence for protein stability index at or above 4: SSSNEHAAPAAKTRKQAAKKVAPL [ELOA2]
Output line: class 1

Input line: hey, is protein stability index for this one >= 4? SNTLGFGTEQAPYGMQTQNYPKGG [ETS2]
Output line: class 1

Input line: Does the reported protein stability index for NVSTKEGIHLALVELLKNLTKYPT [INTS4] fall at or above the 4 mark?
Output line: class 0

Input line: Reported protein stability index reaches at least 4 for GEGLNVIQQTTRYFSTPQTMDLFL [NANOGP8] ?
Output line: class 0

Input line: Check this sequence for protein stability index at or above 4: TAGDRLTEFRKGAQSLPGPCAAAR [IRX6]
Output line: class 1

Input line: # bool: protein stability index of VKELGTVMRMLGQTPTKEELDAII [TNNC2] >= 4
Output line: class 0
